System: Escherichia coli
Assay: Minimum inhibitory concentration (MIC)preventing growth of Escherichia coli
Format: functional
So basically, if MIC comes in under 0.06 µg/mL it's T, and if it's 0.06 µg/mL or more it's F.

Please review the following examples before continuing.
INSERT INTO results (cpd_smiles, label_value) VALUES
  ('CS(=O)(=O)OC1CN(c2c(F)cc3c(=O)c(C(=O)O)cn(C4CC4)c3c2F)C1', 'F'),
  ('NC(=O)C1CN(c2c(F)cc3c(=O)c(C(=O)O)cn(C4CC4)c3c2F)C1', 'F'),
  ('NC1CN(c2cc3c(cc2F)c(=O)c(C(=O)O)cn3C2CC2)C1', 'T'),
  ('CCC1(O)CN(c2c(F)cc3c(=O)c(C(=O)O)cn(C4CC4)c3c2F)C1', 'F'),
  ('NC1CN(c2cc3c(cc2F)c(=O)c2c(=O)[nH]sc2n3C2CC2)C1', 'T');

# TODO verify MIC < 0.06 µg/mL strictly for this molecule: CC1(N)CN(c2cc3c(cc2F)c(=O)c(C(=O)O)cn3-c2ccc(F)cc2)C1 F

# TODO verify MIC < 0.06 µg/mL strictly for this molecule: CNC1CN(c2nc3c(cc2F)c(=O)c(C(=O)O)cn3C2CC2)C1 T

# TODO verify MIC < 0.06 µg/mL strictly for this molecule: CCNC1CN(c2cc3c(cc2F)c(=O)c2c(=O)[nH]sc2n3C2CC2)C1 T

# TODO verify MIC < 0.06 µg/mL strictly for this molecule: NC1CN(c2c(F)cc3c(=O)c(C(=O)O)cn(-c4ccc(F)cc4F)c3c2Cl)C1 T

# TODO verify MIC < 0.06 µg/mL strictly for this molecule: CN(C)C1CN(c2cc3c(cc2F)c(=O)c2c(=O)[nH]sc2n3C2CC2)C1 T

# TODO verify MIC < 0.06 µg/mL strictly for this molecule: CC(=O)OC1CN(c2c(F)cc3c(=O)c(C(=O)O)cn(C4CC4)c3c2F)C1 F

----------
Tested on: Enterobacter cloacae
Experiment: Minimum inhibitory concentration (MIC)preventing growth of Enterobacter cloacae
Assay type: functional
So basically, if MIC comes in under 0.1 µg/mL it's criterion met, and if it's 0.1 µg/mL or more it's criterion not met.

Please review the following examples before continuing.
INSERT INTO measurements (compound, label_value) VALUES
  ('NC1CN(c2c(F)cc3c(=O)c(C(=O)O)cn(C4CC4)c3c2Cl)C1', 'criterion met'),
  ('CC1(N)CN(c2cc3c(cc2F)c(=O)c(C(=O)O)cn3C2CC2)C1', 'criterion not met'),
  ('CC1(N)CN(c2c(F)cc3c(=O)c4c(=O)[nH]sc4n(C4CC4)c3c2F)C1', 'criterion met'),
  ('Nc1c(F)c(N2CC(N)C2)c(F)c2c1c(=O)c(C(=O)O)cn2C1CC1', 'criterion met'),
  ('CNC1CN(c2c(F)cc3c(=O)c(C(=O)O)cn(C4CC4)c3c2F)C1', 'criterion met');

# TODO verify MIC < 0.1 µg/mL strictly for this compound: CC1(CN)CN(c2cc3c(cc2F)c(=O)c(C(=O)O)cn3C2CC2)C1 criterion not met

# TODO verify MIC < 0.1 µg/mL strictly for this compound: CCn1cc(C(=O)O)c(=O)c2c(N)c(F)c(N3CC(N)C3)c(F)c21 criterion not met

# TODO verify MIC < 0.1 µg/mL strictly for this compound: CC1(N)CN(c2cc3c(cc2F)c(=O)c(C(=O)O)cn3CCF)C1 criterion not met

# TODO verify MIC < 0.1 µg/mL strictly for this compound: NC1CN(c2c(F)cc3c(=O)c(C(=O)O)cn(C4CC4)c3c2F)C1 criterion met
